- target-or-test-system: XO (Bos taurus)
- Construct: purchased Roche Diagnostics (Mannheim, Germany)
- Sequence (P80457 whole entry): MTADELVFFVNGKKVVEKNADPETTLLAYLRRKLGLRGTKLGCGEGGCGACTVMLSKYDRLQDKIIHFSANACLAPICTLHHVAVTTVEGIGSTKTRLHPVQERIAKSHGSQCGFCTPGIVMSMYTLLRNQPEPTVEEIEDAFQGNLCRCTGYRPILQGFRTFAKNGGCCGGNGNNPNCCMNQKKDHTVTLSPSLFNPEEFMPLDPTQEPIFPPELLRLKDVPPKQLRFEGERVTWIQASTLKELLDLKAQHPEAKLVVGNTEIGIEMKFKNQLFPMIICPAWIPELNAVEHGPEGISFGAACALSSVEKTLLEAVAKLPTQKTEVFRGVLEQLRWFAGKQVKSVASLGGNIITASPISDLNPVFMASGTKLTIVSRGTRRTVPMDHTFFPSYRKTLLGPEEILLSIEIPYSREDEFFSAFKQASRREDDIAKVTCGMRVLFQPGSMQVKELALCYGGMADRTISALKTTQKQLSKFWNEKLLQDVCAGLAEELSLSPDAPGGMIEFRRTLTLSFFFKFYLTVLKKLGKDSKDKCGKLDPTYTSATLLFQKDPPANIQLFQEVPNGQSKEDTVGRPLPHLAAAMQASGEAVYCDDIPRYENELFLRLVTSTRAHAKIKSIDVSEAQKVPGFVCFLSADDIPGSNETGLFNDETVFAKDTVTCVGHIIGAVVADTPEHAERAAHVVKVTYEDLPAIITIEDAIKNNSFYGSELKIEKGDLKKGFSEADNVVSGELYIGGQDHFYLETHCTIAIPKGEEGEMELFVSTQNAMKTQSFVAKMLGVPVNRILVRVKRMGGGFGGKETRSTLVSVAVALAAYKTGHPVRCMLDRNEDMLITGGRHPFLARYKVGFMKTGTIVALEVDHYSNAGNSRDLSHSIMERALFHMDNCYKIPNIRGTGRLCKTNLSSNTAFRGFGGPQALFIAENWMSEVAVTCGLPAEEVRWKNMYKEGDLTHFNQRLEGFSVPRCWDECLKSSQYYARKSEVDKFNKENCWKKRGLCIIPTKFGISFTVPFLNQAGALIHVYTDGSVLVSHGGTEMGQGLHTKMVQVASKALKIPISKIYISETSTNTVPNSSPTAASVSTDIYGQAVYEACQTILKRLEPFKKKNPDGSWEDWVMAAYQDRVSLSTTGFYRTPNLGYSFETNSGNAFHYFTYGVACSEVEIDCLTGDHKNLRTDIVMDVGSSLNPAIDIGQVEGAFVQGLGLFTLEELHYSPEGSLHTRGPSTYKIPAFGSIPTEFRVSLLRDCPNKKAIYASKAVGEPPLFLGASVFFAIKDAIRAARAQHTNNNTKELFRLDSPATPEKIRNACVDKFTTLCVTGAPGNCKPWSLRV
- experimental-details: Fluorescence quenching assay of XO
- Type: binding, Bovine
- experimental-context: Modified Stern-Volmer association constant Ka, 298 K, pH 7.5
We begin with a simple list: items and their reported Kd.

O=C(O)/C=C/c1ccccc1 [Trans-cinnamic acid, trans-cinnamic acid] ... 8.02 µM
COc1cc(CC(=O)O)ccc1O ... 5.61 µM

// switching to the query molecule
For the molecule "O=c1cc(-c2ccc(O)cc2)oc2cc(O)cc(O)c12" , what Kd is on record?
5.33 µM

====

- target-or-test-system: XO (Bos taurus)
- Construct: purchased Roche Diagnostics (Mannheim, Germany)
- experimental-details: Circular dichroism (CD) analysis of XO secondary structure
- Design: species or system Bovine
- experimental-context: molar ratio XO:inhibitor 1:10, pH 7.5 (free XO 19.7)
- Experimental: The analysis was carried out according to a modified method. […] The measurement was performed in potassium phosphate buffer (pH 7.5) at room temperature. […] The JASCO SSE (Secondary Structure Estimation) software was used to analyze the CD spectroscopic data with Reed’s reference to obtain the data of various secondary structures of XO with respective ligands.
Item-by-item account of α-Helix (%) of XO
Please reply with the bare figure in % and do not write the unit itself.

Before answering, review these 3 worked examples.
COc1cc(CC(=O)O)ccc1O ... 5.1
O=c1cc(-c2ccc(O)cc2)oc2cc(O)cc(O)c12 ... 36.7
O=C(O)/C=C/c1ccccc1 [Trans-cinnamic acid, trans-cinnamic acid] ... 10.4

Here's the next entry for you.
Name the reported α-Helix (%) of XO value associated with the compound "O=c1c(O)c(-c2ccc(O)cc2)oc2cc(O)cc(O)c12"
0.0
